ASSAY_TARGET: HLA A*0201 (Homo sapiens, UniProt P04439, D140Y/D185E/D98H/E176V/E277Q/G131W/G231S/I119V/I121R/I166T/I218V/L300P/L318F/N151K/N90K/P208A/P217A/Q86G/Q94H/R138H/R169H/T345S)
ASSAY_CONDITIONS: positional scanning combinatorial 9-mer library; normalized to 1.0 for the best residue at each position
TEST_READOUT: Normalized average relative binding affinity (ARB), HLA A*0201
// no unit, no text: just the number

Lab note: measured Normalized average relative binding affinity (ARB), HLA A*0201 of XXQXXXXXX [3064.0054] was 0.20

Lab note: measured Normalized average relative binding affinity (ARB), HLA A*0201 of XXVXXXXXX [3064.0058] was 0.25

Lab note: measured Normalized average relative binding affinity (ARB), HLA A*0201 of XXCXXXXXX [3064.0042] was 0.22

Lab note: measured Normalized average relative binding affinity (ARB), HLA A*0201 of SXXXXXXXX [3064.0016] was 0.10

Lab note: measured Normalized average relative binding affinity (ARB), HLA A*0201 of XTXXXXXXX [3064.0037] was 0.038

Lab note: measured Normalized average relative binding affinity (ARB), HLA A*0201 of GXXXXXXXX [3064.0006] was 0.089

Lab note: measured Normalized average relative binding affinity (ARB), HLA A*0201 of XKXXXXXXX [3064.0029] was 0.012

---

ASSAY_TARGET: H-2 D^b (Mus musculus)
Type: binding
Binary label based on Normalized average relative binding affinity(ARB) with cut-off 0.5: below gives True, not below gives False.

Is Normalized average relative binding affinity(ARB) strictly under 0.5 for the entry XXXXIXXXX [3064.0088] ?
True

Is Normalized average relative binding affinity(ARB) strictly under 0.5 for the entry XXXXXXXVX [3064.0158] ?
True

Is Normalized average relative binding affinity(ARB) strictly under 0.5 for the entry XXXYXXXXX [3064.0080] ?
False

Is Normalized average relative binding affinity(ARB) strictly under 0.5 for the entry XXXXXXEXX [3064.0124] ?
False

Is Normalized average relative binding affinity(ARB) strictly under 0.5 for the entry XXXXXXLXX [3064.0130] ?
True

---

ASSAY_TARGET: H-2 K^k (Mus musculus)
Sequence (P01887 21-119): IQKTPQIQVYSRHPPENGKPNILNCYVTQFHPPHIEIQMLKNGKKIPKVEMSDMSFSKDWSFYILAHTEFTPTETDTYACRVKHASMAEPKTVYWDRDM
Sequence (P04223 22-369): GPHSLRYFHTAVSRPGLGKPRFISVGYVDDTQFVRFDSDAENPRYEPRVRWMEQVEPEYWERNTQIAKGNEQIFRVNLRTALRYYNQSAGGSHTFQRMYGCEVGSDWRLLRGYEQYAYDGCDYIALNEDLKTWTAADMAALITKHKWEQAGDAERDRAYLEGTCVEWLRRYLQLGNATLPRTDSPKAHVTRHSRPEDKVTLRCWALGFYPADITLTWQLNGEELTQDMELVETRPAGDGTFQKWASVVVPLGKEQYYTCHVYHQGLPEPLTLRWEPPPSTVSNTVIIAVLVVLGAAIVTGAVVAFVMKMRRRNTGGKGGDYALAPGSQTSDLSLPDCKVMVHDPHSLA
Format: binding
Response key: 1 means Normalized average relative binding affinity (ARB), H-2 Kk >= 0.4; 0 means Normalized average relative binding affinity (ARB), H-2 Kk < 0.4.

Reported Normalized average relative binding affinity (ARB), H-2 Kk reaches at least 0.4 for XXEXXXXXX [3064.0044] ?
0

Reported Normalized average relative binding affinity (ARB), H-2 Kk reaches at least 0.4 for XXXAXXXXX [3064.0061] ?
1

Reported Normalized average relative binding affinity (ARB), H-2 Kk reaches at least 0.4 for XXLXXXXXX [3064.0050] ?
1

Reported Normalized average relative binding affinity (ARB), H-2 Kk reaches at least 0.4 for XXVXXXXXX [3064.0058] ?
0

Reported Normalized average relative binding affinity (ARB), H-2 Kk reaches at least 0.4 for FXXXXXXXX [3064.0005] ?
1

Reported Normalized average relative binding affinity (ARB), H-2 Kk reaches at least 0.4 for XRXXXXXXX [3064.0035] ?
0

Reported Normalized average relative binding affinity (ARB), H-2 Kk reaches at least 0.4 for XXAXXXXXX [3064.0041] ?
0

Reported Normalized average relative binding affinity (ARB), H-2 Kk reaches at least 0.4 for XGXXXXXXX [3064.0026] ?
0

Reported Normalized average relative binding affinity (ARB), H-2 Kk reaches at least 0.4 for WXXXXXXXX [3064.0019] ?
1

Reported Normalized average relative binding affinity (ARB), H-2 Kk reaches at least 0.4 for XVXXXXXXX [3064.0038] ?
0

Reported Normalized average relative binding affinity (ARB), H-2 Kk reaches at least 0.4 for XAXXXXXXX [3064.0021] ?
0

Reported Normalized average relative binding affinity (ARB), H-2 Kk reaches at least 0.4 for XXQXXXXXX [3064.0054] ?
1

Reported Normalized average relative binding affinity (ARB), H-2 Kk reaches at least 0.4 for PXXXXXXXX [3064.0013] ?
0

Reported Normalized average relative binding affinity (ARB), H-2 Kk reaches at least 0.4 for XXTXXXXXX [3064.0057] ?
0

Reported Normalized average relative binding affinity (ARB), H-2 Kk reaches at least 0.4 for XDXXXXXXX [3064.0023] ?
0
